Entry source: patent US20130324522A1

Biological target: TRP channel (TRPM8) (Mus musculus, UniProt Q8R4D5)
Construct: Full-length cDNAs for mosquito (Anopheles gambiae) odorant receptor (OR1, OR2, OR7, OR8, OR28), and fly (Drosophila melanogaster) odorant receptor (Or47a, Or83b), mouse TRP channel (TRPM8); expressed in transfected cells
Sequence (Q8R4D5 whole entry): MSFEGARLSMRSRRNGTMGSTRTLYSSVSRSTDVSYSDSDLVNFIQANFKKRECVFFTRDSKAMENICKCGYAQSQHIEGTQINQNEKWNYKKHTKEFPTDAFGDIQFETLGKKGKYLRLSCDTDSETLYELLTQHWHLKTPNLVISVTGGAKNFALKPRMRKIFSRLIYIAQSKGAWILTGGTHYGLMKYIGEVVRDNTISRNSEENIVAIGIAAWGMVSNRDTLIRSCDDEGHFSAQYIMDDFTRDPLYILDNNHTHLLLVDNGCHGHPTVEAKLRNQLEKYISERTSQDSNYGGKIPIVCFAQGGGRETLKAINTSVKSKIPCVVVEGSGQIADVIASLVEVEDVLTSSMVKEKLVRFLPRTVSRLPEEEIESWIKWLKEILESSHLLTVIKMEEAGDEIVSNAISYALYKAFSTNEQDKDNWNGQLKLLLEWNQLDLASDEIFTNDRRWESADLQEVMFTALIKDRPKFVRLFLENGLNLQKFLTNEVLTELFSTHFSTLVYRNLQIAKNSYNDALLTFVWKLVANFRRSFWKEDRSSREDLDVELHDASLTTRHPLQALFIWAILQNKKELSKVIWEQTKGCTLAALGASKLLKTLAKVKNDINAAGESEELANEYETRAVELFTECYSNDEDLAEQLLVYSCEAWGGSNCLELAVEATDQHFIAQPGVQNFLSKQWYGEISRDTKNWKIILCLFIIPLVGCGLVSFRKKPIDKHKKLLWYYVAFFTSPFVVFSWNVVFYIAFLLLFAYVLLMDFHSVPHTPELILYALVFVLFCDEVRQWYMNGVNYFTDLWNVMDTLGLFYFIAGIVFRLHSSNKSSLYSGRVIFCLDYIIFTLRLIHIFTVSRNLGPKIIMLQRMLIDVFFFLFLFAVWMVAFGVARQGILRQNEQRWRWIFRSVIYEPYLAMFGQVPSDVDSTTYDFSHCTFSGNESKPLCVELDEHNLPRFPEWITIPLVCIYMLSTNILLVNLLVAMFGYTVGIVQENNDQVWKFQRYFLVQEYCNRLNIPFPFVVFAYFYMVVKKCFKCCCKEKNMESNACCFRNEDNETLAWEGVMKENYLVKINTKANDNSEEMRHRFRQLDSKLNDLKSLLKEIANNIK
Assay: Ca2+-imaging of stable HEK293T cell line TRPM8
Type: cell-based
Conditions: HEK-293T; compound applied at 4 μM; read-out: Percent Inhibition TRPM8
ENDPOINT LABEL: inhibition at 4 µM

Take a look at these entries with their results.
- COMPOUND: "COc1ccccc1C(=O)C1CCCN(C(=O)c2cccc(N3CCOCC3)c2)C1 (centres unmarked)"
  inhibition at 4 µM: "26 to 50%"
- COMPOUND: "CCOC(=O)CCC(=O)N(CCc1ccccc1)CC(=O)Nc1cc(C(C)(C)C)nn1-c1ccccc1C"
  inhibition at 4 µM: "< 25%"

Per the record, Cc1nn(-c2ccc(Cl)cc2)c(C)c1C(=O)NCc1ccccn1 has inhibition at 4 µM of < 25%

----------
Biological target: mOREG (Mus musculus, UniProt Q920P2)
Assay: Ca2+-imaging, control receptor mOREG
Format: cell-based
Settings: compound applied at 4 μM; read-out: Percent Inhibition mOREG
Experimental: Stable cell lines were cultured in 10 cm dishes, and confluent cells (70-80%) were trypsinized. 10,000 cells/20 μL were transferred into each well of 384-well plates coated with poly-D-lysine, and cultured for 2 days. […] 20 μL of Ca-4 dye was loaded into each well for 1.5 hr at room temperature in the dark, and the dye-loaded plates were subjected to Ca^2+-imaging using a Hamamatsu FDSS6000 real time fluorescence plate reader. […]
Recorded inhibition at 4 µM, one value per entry.

Take a look at these entries with their results.
- MOLECULE: "Cc1cc(C)c2c(c1C(=O)N1CCC3(CC1)C(=O)NCN3c1ccccc1)CC(C)(C)C2=O"
  inhibition at 4 µM: "26 to 50%"
- MOLECULE: "Cc1cc(N(C)C2CCCCC2)nc(SCc2cccc(C(=O)N3CCCC3)c2)n1"
  inhibition at 4 µM: "< 25%"
- MOLECULE: "C=CCOc1cccc(C(=O)N2CCCC(C(=O)c3ccccc3OC)C2)c1 (centres unmarked)"
  inhibition at 4 µM: "< 25%"
- MOLECULE: "Cc1cccc(Cn2ccnc2CN(C(=O)c2ccccc2F)C2CCCCC2)c1"
  inhibition at 4 µM: "26 to 50%"
- MOLECULE: "Cc1ccccc1C(=O)N[C@@H]1CCCCC1NC(=O)C1CCN(C(=O)c2cc(C(F)(F)F)cc(C(F)(F)F)c2)CC1 (some centres unmarked)"
  inhibition at 4 µM: "26 to 50%"

Per the record, COc1ccc(OCC(=O)N2CCOC(Cc3ccccc3)C2)cc1 (centres unmarked) has inhibition at 4 µM of < 25%

Per the record, CC(NC(=O)c1cc2n(n1)CCN(Cc1c(Cl)cccc1Cl)C2=O)c1ccccc1 (centres unmarked) has inhibition at 4 µM of 26 to 50%

Per the record, CCN(CC)c1onc(-c2ccccc2)c1CN(CC1CCCO1)C(=O)c1ccc2c(c1)OCO2 (centres unmarked) has inhibition at 4 µM of 51 to 74%

----------
Molecular target: Or47a/Or83b (Drosophila melanogaster, UniProt P81921+Q9VNB5)
Construct: Full-length cDNAs for mosquito (Anopheles gambiae) odorant receptor (OR1, OR2, OR7, OR8, OR28), and fly (Drosophila melanogaster) odorant receptor (Or47a, Or83b); expressed in transfected cells
Sequence (P81921 1-385): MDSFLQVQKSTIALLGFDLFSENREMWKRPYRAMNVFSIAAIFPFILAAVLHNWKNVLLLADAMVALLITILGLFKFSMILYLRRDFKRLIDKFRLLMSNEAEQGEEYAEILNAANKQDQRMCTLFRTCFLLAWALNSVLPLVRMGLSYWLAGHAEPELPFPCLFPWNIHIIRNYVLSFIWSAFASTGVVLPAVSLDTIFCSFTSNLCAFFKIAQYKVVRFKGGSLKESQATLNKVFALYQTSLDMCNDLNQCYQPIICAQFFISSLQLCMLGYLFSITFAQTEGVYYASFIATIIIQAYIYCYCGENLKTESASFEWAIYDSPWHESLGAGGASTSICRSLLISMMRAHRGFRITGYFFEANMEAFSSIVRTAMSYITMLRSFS
Sequence (Q9VNB5 1-486): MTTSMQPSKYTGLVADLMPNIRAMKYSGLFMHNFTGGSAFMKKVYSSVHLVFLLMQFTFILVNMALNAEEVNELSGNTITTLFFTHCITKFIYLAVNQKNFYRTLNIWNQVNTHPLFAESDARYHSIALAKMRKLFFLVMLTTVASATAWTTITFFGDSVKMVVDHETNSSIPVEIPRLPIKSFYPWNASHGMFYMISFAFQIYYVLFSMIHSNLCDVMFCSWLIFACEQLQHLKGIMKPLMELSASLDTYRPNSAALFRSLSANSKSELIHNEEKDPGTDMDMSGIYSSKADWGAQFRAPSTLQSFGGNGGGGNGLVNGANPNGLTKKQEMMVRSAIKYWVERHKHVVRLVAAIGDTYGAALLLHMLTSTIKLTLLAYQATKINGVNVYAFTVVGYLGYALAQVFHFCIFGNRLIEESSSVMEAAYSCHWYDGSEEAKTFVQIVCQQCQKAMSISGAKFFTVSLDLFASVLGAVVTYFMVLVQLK
Assay: Ca2+-imaging of stable Flip-In T-Rex cell line Or47a/Or83b
Assay type: cell-based
Settings: Table B; read-out: IC50 OR47a
Recorded IC50, one value per entry.

Entry COc1ccc(C(=O)c2ccccc2)c(O)c1O [RU-0001617] , Or47a/Or83b (Drosophila melanogaster, UniProt P81921+Q9VNB5) data, IC50 value: > 1000 nM

Entry CCn1c(C)c(C(=O)CN(CC2CCCO2)C(=O)C2C[C@H]2c2ccccc2)c(C)c1C(=O)OC (stereo partly drawn) [RU-0071273] , Or47a/Or83b (Drosophila melanogaster, UniProt P81921+Q9VNB5) data, IC50 value: > 1000 nM

----------
Recorded inhibition at 4 µM, one value per entry.
Target: mOREG (Mus musculus, UniProt Q920P2)
Sequence (Q920P2 1-313): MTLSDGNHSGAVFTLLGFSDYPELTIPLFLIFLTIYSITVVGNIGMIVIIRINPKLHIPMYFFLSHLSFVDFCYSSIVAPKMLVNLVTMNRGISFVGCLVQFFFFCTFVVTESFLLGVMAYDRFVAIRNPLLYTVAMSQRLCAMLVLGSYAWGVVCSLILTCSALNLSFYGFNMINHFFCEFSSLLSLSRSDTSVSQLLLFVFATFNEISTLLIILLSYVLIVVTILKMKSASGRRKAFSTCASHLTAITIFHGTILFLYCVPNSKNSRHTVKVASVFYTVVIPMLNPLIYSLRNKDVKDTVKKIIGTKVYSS
Assay: Ca2+-imaging, control receptor mOREG
Format: cell-based
Settings: compound applied at 4 μM; read-out: Percent Inhibition mOREG

Take a look at these entries with their results.
- COMPOUND: "COCCCN(Cc1c(-c2ccccc2)noc1N(C)C(C)C)C(=O)c1ccccc1OC"
  OBSERVED: "26 to 50%"
- COMPOUND: "O=C(c1c(F)c(F)cc(F)c1F)N1CCOC(Cc2ccccc2)C1 (stereo not shown)"
  OBSERVED: "26 to 50%"
- COMPOUND: "COc1ccc(-n2c(Cc3ccccc3)nnc2SCCCC(=O)N2CCN(C(=O)c3ccc(C(F)(F)F)cc3)C(C)C2)cc1 (stereo not shown)"
  OBSERVED: "26 to 50%"

# evaluate next
Per the record, CCNc1nc(NC(C)C)nc(N(C#N)Cc2ccccc2)n1 has inhibition at 4 µM of < 25%

----------
Target: OR10/OR7 (Anopheles gambiae, UniProt B5U0U7+Q7QCC7)
Sequence (Q7QCC7 whole entry): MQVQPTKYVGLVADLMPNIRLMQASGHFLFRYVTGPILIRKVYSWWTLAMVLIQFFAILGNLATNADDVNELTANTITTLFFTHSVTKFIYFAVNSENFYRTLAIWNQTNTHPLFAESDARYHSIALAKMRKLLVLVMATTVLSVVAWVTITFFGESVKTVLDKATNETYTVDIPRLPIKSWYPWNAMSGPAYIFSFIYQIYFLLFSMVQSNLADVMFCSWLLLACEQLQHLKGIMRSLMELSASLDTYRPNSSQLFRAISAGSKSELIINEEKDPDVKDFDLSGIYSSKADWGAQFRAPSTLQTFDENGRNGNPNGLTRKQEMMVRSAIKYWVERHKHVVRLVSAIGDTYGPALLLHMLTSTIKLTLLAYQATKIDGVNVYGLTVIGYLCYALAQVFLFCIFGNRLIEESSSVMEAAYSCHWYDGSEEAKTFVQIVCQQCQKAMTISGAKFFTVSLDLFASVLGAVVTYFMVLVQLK
Sequence (B5U0U7 entry or part of it): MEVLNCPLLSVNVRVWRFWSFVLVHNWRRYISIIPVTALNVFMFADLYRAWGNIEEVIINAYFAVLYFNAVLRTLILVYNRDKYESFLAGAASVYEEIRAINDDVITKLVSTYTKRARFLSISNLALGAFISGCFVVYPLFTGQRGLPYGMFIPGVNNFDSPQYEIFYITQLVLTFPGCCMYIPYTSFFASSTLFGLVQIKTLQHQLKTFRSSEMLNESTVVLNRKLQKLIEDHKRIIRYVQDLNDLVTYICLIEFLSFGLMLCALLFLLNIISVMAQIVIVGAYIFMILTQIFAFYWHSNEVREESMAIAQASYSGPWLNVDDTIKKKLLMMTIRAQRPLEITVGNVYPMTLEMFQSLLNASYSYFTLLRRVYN
Assay: Ca2+-imaging of stable HEK293T cell line OR10/OR7
Format: cell-based
Settings: HEK-293T; compound applied at 4 μM; read-out: Percent Inhibition OR10 OR7
ENDPOINT LABEL: inhibition at 4 µM

- MOLECULE: "COCCN(Cc1c(-c2ccccc2)noc1N1CCSCC1)CC(O)COCc1ccco1 (stereo not shown) [RU-0037278]"
  inhibition at 4 µM: "26 to 50%"

Per the record, COCCCN(Cc1c(-c2ccccc2)noc1N1CCCC1)C(=O)c1ccc(F)cc1 [RU-0037386] has inhibition at 4 µM of 26 to 50%

Per the record, O=C(c1cccnc1Cl)N1CCOC(COCc2c(Cl)cccc2Cl)C1 (stereo not shown) [RU-0050372] has inhibition at 4 µM of 26 to 50%

----------
Molecular target: OR28/OR7 (Anopheles gambiae, UniProt A0A1S4GFY3+Q7QCC7)
Sequence (A0A1S4GFY3 entry or part of it): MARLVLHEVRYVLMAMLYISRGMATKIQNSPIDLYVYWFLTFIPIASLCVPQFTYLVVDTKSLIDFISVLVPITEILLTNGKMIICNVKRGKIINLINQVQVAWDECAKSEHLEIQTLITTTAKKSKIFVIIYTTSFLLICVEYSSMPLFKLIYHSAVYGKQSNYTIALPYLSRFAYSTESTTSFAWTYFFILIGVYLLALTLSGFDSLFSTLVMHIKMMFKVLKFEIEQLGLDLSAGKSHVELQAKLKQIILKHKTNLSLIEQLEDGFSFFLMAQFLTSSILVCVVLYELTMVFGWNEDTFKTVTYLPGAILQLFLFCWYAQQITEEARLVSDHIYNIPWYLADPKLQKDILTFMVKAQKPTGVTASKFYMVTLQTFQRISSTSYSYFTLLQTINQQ
Sequence (Q7QCC7 whole entry): as the sequence (Q7QCC7 whole entry) above
Assay: Ca2+-imaging of stable HEK293T cell line OR28/OR7
Assay type: cell-based
Details: Table B; read-out: IC50 OR28
ENDPOINT LABEL: IC50

Take a look at these entries with their results.
- MOLECULE: "COCCN(Cc1c(-c2ccccc2)noc1N(C)C1CCCCC1)C(=O)c1ccccc1OC"
  OBSERVED: "< 100 nM"
- MOLECULE: "O=C(NCCC(=O)N1CCOC(COCc2ccc(F)cc2Cl)C1)OCc1ccccc1 (stereo not shown)"
  OBSERVED: "< 100 nM"
- MOLECULE: "C=CCN(Cc1nccn1Cc1ccccc1F)C(=O)C1CCCC1"
  OBSERVED: "< 100 nM"
- MOLECULE: "COc1ccc(OCC(=O)N2CCOC(Cc3ccccc3)C2)cc1 (stereo not shown)"
  OBSERVED: "100 to 1000 nM"
- MOLECULE: "Cc1ccccc1C(=O)N[C@@H]1CCCCC1NC(=O)C1CCN(C(=O)C23CC4CC(CC(C4)C2)C3)CC1 (stereo partly shown)"
  OBSERVED: "< 100 nM"
- MOLECULE: "CC(C)CN(Cc1nccn1Cc1c(F)cccc1Cl)C(=O)c1ccc(F)cc1"
  OBSERVED: "< 100 nM"
- MOLECULE: "Cc1cc(C)c(Cn2ccnc2CN(C(=O)c2ccccc2F)C(C)C)c(C)c1"
  OBSERVED: "< 100 nM"
- MOLECULE: "CCN(CC)c1onc(-c2ccc(F)cc2)c1CN(CCCOC)C(=O)c1ccc2c(c1)OCO2"
  OBSERVED: "< 100 nM"

Per the record, CN(C)c1nc(N(C)C)nc(N(C)C)n1 has IC50 of < 100 nM

Per the record, CCN(C)c1onc(-c2ccccc2)c1CN(CCCOC)C(=O)c1ccco1 has IC50 of > 1000 nM
